# measurement-protocol: PBPK food effect modeling (Simcyp V17.1 and/or GastroPlus V9.5; Model 1 / Model 2)
# Set-up: species or system human
# assay-context: Model 1
Where a name gives a salt, the structure may show the parent alone.
readout-kind: AUC Ratio of Ratios (Sim'd / Obs'd)
Please reply with the value in numeric form only.

Value of AUC Ratio of Ratios (Sim'd / Obs'd) reported for the molecule CCC[C@H](NC(=O)[C@@H]1[C@H]2CCC[C@H]2CN1C(=O)[C@@H](NC(=O)[C@@H](NC(=O)c1cnccn1)C1CCCCC1)C(C)(C)C)C(=O)C(=O)NC1CC1 is 0.42

Lab book: AUC Ratio of Ratios (Sim'd / Obs'd) of NNC(=O)c1ccncc1 noted as 1.08

In plain terms, CN/C(=N/CCSCc1nc[nH]c1C)NC#N has a documented AUC Ratio of Ratios (Sim'd / Obs'd) of 1.14

Consider CCc1nn(CCCN2CCN(c3cccc(Cl)c3)CC2)c(=O)n1CCOc1ccccc1 [Nefazodone HCl] . Its measured AUC Ratio of Ratios (Sim'd / Obs'd) is 0.97

Given item Cc1ccc(Nc2nccc(N(C)c3ccc4c(C)n(C)nc4c3)n2)cc1S(N)(=O)=O , the value recorded as its AUC Ratio of Ratios (Sim'd / Obs'd) is 0.13

The reported value for Cc1[nH]c2ccccc2c1CCNCc1ccc(/C=C/C(=O)NO)cc1 in terms of AUC Ratio of Ratios (Sim'd / Obs'd) is 1.25

Form field AUC Ratio of Ratios (Sim'd / Obs'd), entry CCOC(=O)C1=C[C@@H](OC(CC)CC)[C@H](NC(C)=O)[C@@H](N)C1 : 1.09

Recorded AUC Ratio of Ratios (Sim'd / Obs'd) (molecule CCC(C)n1ncn(-c2ccc(N3CCN(c4ccc(OCC5COC(Cn6cncn6)(c6ccc(Cl)cc6Cl)O5)cc4)CC3)cc2)c1=O (stereo not shown) ): 0.82

Quick note, AUC Ratio of Ratios (Sim'd / Obs'd) for O=C1NC(=O)C(c2ccccc2)(c2ccccc2)N1 landed at 0.95

Notebook: CC(C)(C)c1cc(C(C)(C)C)c(NC(=O)c2c[nH]c3ccccc3c2=O)cc1O , AUC Ratio of Ratios (Sim'd / Obs'd) read as 1.03

molecule Cc1c(F)cccc1NC(=O)Nc1ccc(Cl)c(S(=O)(=O)[C@H]2CCCNC2)c1O , AUC Ratio of Ratios (Sim'd / Obs'd) observed: 1.51

GET /value?item= Cc1ccc(-c2ncc(Cl)cc2-c2ccc(S(C)(=O)=O)cc2)cn1 &field=AUC Ratio of Ratios (Sim'd / Obs'd) returns 1.05

// AUC Ratio of Ratios (Sim'd / Obs'd) value for CC(C)(CO)c1cc2cc(NC(=O)C3(c4ccc5c(c4)OC(F)(F)O5)CC3)c(F)cc2n1C[C@@H](O)CO : 0.92

---

What solubility was measured for each of the following?
# measurement-protocol: Solubility measurement in biorelevant media (FaSSIF-V2, FeSSIF-V2)
# assay-context: FeSSIF-V2 (fed state simulated intestinal fluid), 37 °C, thermodynamic from solid, FeSSIF solubility
Counter-ions that a name gives are not always drawn.
Record the value in µg/mL, omitting the unit from your answer.

Input CCc1nn(CCCN2CCN(c3cccc(Cl)c3)CC2)c(=O)n1CCOc1ccccc1 [Nefazodone HCl] . Output solubility: 3100

Form field solubility, entry CCc1cc2c(cc1N1CCC(N3CCOCC3)CC1)C(C)(C)c1[nH]c3cc(C#N)ccc3c1C2=O : 77

Sure, the documented solubility for CC1(C)CCC(CN2CCN(c3ccc(C(=O)NS(=O)(=O)c4ccc(NCC5CCOCC5)c([N+](=O)[O-])c4)c(Oc4cnc5[nH]ccc5c4)c3)CC2)=C(c2ccc(Cl)cc2)C1 is 26.4

Measured solubility, Cc1ccc(Nc2nccc(N(C)c3ccc4c(C)n(C)nc4c3)n2)cc1S(N)(=O)=O : 2.8

---

Exercise: for every item that follows, state its recorded Cmax Ratio of Ratios (Sim'd / Obs'd).
# measurement-protocol: PBPK food effect modeling (Simcyp V17.1 and/or GastroPlus V9.5; Model 1 / Model 2)
# Set-up: species or system human
# assay-context: Model 2
Where a name gives a salt, the structure may show the parent alone.
Reply: number alone, nothing else.

Query NNC(=O)c1ccncc1 yields Cmax Ratio of Ratios (Sim'd / Obs'd) of 1.46

Entry CCC[C@H](NC(=O)[C@@H]1[C@H]2CCC[C@H]2CN1C(=O)[C@@H](NC(=O)[C@@H](NC(=O)c1cnccn1)C1CCCCC1)C(C)(C)C)C(=O)C(=O)NC1CC1 — recorded Cmax Ratio of Ratios (Sim'd / Obs'd) = 0.44

Cmax Ratio of Ratios (Sim'd / Obs'd) reported for this compound Cc1c(O)cccc1C(=O)N[C@@H](CSc1ccccc1)[C@H](O)CN1C[C@H]2CCCC[C@H]2C[C@H]1C(=O)NC(C)(C)C [Nelfinavir mesylate] : 0.66

Note to self: Cmax Ratio of Ratios (Sim'd / Obs'd) recorded for Cc1[nH]c2ccccc2c1CCNCc1ccc(/C=C/C(=O)NO)cc1 was 1.42

The value of Cmax Ratio of Ratios (Sim'd / Obs'd) measured for the compound CCC(C)n1ncn(-c2ccc(N3CCN(c4ccc(OCC5COC(Cn6cncn6)(c6ccc(Cl)cc6Cl)O5)cc4)CC3)cc2)c1=O (stereo not drawn) turned out to be 1.02

Entry CC1(C)CCC(CN2CCN(c3ccc(C(=O)NS(=O)(=O)c4ccc(NCC5CCOCC5)c([N+](=O)[O-])c4)c(Oc4cnc5[nH]ccc5c4)c3)CC2)=C(c2ccc(Cl)cc2)C1 — recorded Cmax Ratio of Ratios (Sim'd / Obs'd) = 0.75

Record CCc1nn(CCCN2CCN(c3cccc(Cl)c3)CC2)c(=O)n1CCOc1ccccc1 [Nefazodone HCl] . Reported Cmax Ratio of Ratios (Sim'd / Obs'd): 1.05

Given item O=C1NC(=O)C(c2ccccc2)(c2ccccc2)N1 , the value recorded as its Cmax Ratio of Ratios (Sim'd / Obs'd) is 1.00

According to the records, this compound Cl.O=C1Cc2cc(CCN3CCN(c4nsc5ccccc45)CC3)c(Cl)cc2N1 [Ziprasidone HCl] displays Cmax Ratio of Ratios (Sim'd / Obs'd) of 0.88

# Cmax Ratio of Ratios (Sim'd / Obs'd) (compound: CN/C(=N/CCSCc1nc[nH]c1C)NC#N ) is 1.10

Record Cc1ccc(Nc2nccc(N(C)c3ccc4c(C)n(C)nc4c3)n2)cc1S(N)(=O)=O , field Cmax Ratio of Ratios (Sim'd / Obs'd): 0.44

For reference, reported Cmax Ratio of Ratios (Sim'd / Obs'd) for Cc1ccc(-c2ncc(Cl)cc2-c2ccc(S(C)(=O)=O)cc2)cn1 stands at 1.25

---

# measurement-protocol: Solubility measurement in aqueous buffer solutions
# assay-context: pH 6.5, aqueous buffer, thermodynamic from solid
Counter-ions that a name gives are not always drawn.
readout-kind: solubility (µg/mL)
The reply should be a number in µg/mL, with the unit left off.

Lab note: measured solubility of COCCc1ccc(OCC(O)CNC(C)C)cc1 (stereo not drawn) [Metoprolol] was 17100

Reported solubility ( CCc1nn(CCCN2CCN(c3cccc(Cl)c3)CC2)c(=O)n1CCOc1ccccc1 [Nefazodone HCl] ) = 5380

Briefly, solubility measured for Cc1ccc(Nc2nccc(N(C)c3ccc4c(C)n(C)nc4c3)n2)cc1S(N)(=O)=O [Pazopanib] : 0.5

Reported solubility for NNC(=O)c1ccncc1 [Isoniazid] was 128000

What the record says about CC(C)(C)c1nc(-c2cccc(NS(=O)(=O)c3c(F)cccc3F)c2F)c(-c2ccnc(N)n2)s1 [Dabrafenib] : solubility is 1

Query CC1(C)CCC(CN2CCN(c3ccc(C(=O)NS(=O)(=O)c4ccc(NCC5CCOCC5)c([N+](=O)[O-])c4)c(Oc4cnc5[nH]ccc5c4)c3)CC2)=C(c2ccc(Cl)cc2)C1 [Venetoclax] yields solubility of 6

---

Provide the reported Cmax Ratio of Ratios (Sim'd / Obs'd) of each item.
# measurement-protocol: PBPK food effect modeling (Simcyp V17.1 and/or GastroPlus V9.5; Model 1 / Model 2)
# Design: species or system human
# assay-context: Model 1
Counter-ions that a name gives are not always drawn.
Form field (numeric): enter value without unit.

Recorded result, CCc1nn(CCCN2CCN(c3cccc(Cl)c3)CC2)c(=O)n1CCOc1ccccc1 [Nefazodone HCl] , Cmax Ratio of Ratios (Sim'd / Obs'd): 0.84

Looking up Cc1c(F)cccc1NC(=O)Nc1ccc(Cl)c(S(=O)(=O)[C@H]2CCCNC2)c1O [Danirixin] , I see its Cmax Ratio of Ratios (Sim'd / Obs'd) listed as 1.70

Lab book: Cmax Ratio of Ratios (Sim'd / Obs'd) of CC(C)(CO)c1cc2cc(NC(=O)C3(c4ccc5c(c4)OC(F)(F)O5)CC3)c(F)cc2n1C[C@@H](O)CO [Tezacaftor] noted as 1.23

// field: Cmax Ratio of Ratios (Sim'd / Obs'd); key: CC(C)(C)c1cc(C(C)(C)C)c(NC(=O)c2c[nH]c3ccccc3c2=O)cc1O [Ivacaftor] ; value = 1.15

What the record says about CCOC(=O)C1=C[C@@H](OC(CC)CC)[C@H](NC(C)=O)[C@@H](N)C1 [Oseltamivir] : Cmax Ratio of Ratios (Sim'd / Obs'd) is 1.34

Reported Cmax Ratio of Ratios (Sim'd / Obs'd) of Cc1ccc(Nc2nccc(N(C)c3ccc4c(C)n(C)nc4c3)n2)cc1S(N)(=O)=O [Pazopanib] : 0.12

Input CCC[C@H](NC(=O)[C@@H]1[C@H]2CCC[C@H]2CN1C(=O)[C@@H](NC(=O)[C@@H](NC(=O)c1cnccn1)C1CCCCC1)C(C)(C)C)C(=O)C(=O)NC1CC1 [Telaprevir] . Output Cmax Ratio of Ratios (Sim'd / Obs'd): 0.26
